Assay: Pharmacokinetic analysis with prodrugs in rats
Assay type: in vivo, SD rats
Conditions: male, Sprague-Dawley, rat, plasma; Intravenous Injection into Rats (10 mg/kg); analyte: prodrug
Reported values of clearance for individual entries
Kindly answer with a numeric value in mL/min/kg, unit omitted.

CC(C)c1cccc([C@H](C)C2CC2)c1OCOP(=O)([O-])[O-].[Na+].[Na+]; 10.5

In the following, a different compound is considered.
The compound listed as CC(C)c1cccc([C@H](C)C2CC2)c1OP(=O)(O)O has a reported clearance of 6.1

* * *

Experiment: Pharmacokinetic analysis with prodrugs in rats
Type: in vivo, SD rats
Settings: male, Sprague-Dawley, rat, plasma, iv, 10 mg/kg
Property: AUC(0-t) (ng·h/mL)
Kindly answer with a numeric value in ng·h/mL, unit omitted.

The compound listed as CC(C)c1cccc(C(C)C)c1O [Propofol, reference compound] has a reported AUC(0-t) of 81.9

Reference source for all entries: patent US9517988B2
